Listing: Test C rating (% disease control) of selected molecules
# System: Septoria tritici
# assay overview: Test C: wheat leaf blotch, preventive spray on wheat seedlings, visual disease rating
# Type: in vivo
# experimental parameters: 40 ppm (compound number followed by *)
# output: bare number, implied unit %

// query Look up Test C rating (% disease control): COc1cc(OC)cc(-c2c(C=O)cnc(C)c2-c2c(F)ccc(OC)c2F)c1 [Compound 113]
// result 76

// query Look up Test C rating (% disease control): COc1cc(OC)cc(-c2c(-c3cccnc3)cnc(C)c2-c2c(F)cc(F)cc2F)c1 [Compound 128]
// result 100

// query Look up Test C rating (% disease control): COc1cc(OC)c(Cl)c(-c2c(-c3ccccc3F)cnc(C)c2-c2ccc(F)cc2)c1 [Compound 126]
// result 99

// query Look up Test C rating (% disease control): COc1cc(OC)cc(-c2c(C(C)C#N)cnc(C)c2-c2c(F)cc(F)cc2F)c1 (stereo not shown) [Compound 125]
// result 96

// query Look up Test C rating (% disease control): COc1cc(OC)c(Cl)c(-c2c(C(C)=O)cnc(C)c2-c2c(F)cc(F)cc2F)c1 [Compound 118]
// result 96

// query Look up Test C rating (% disease control): COc1cc(OC)cc(-c2c(C)cnc(C)c2-c2c(F)cc(F)cc2F)c1 [Compound 129]
// result 99

// query Look up Test C rating (% disease control): COc1cc(OC)cc(-c2c(C(C)O)cnc(C)c2-c2c(F)ccc(OC)c2F)c1 (stereo not shown) [Compound 116]
// result 95

====

Listing: pest or weed control at 40 ppm of selected compounds
# Tested on: Septoria tritici
# assay overview: Test C: wheat leaf blotch, preventive spray on wheat seedlings, visual disease rating
# Type: in vivo
# experimental parameters: Zymoseptoria tritici, 504 h, 40 ppm (compound number followed by *)
# output: bare number, implied unit %

// known answers, use as guide
- compound: "COc1cc(OC)c(Cl)c(-c2c(CC#N)cnc(C)c2-c2c(F)cc(F)cc2F)c1 [Compound 133]"
  pest or weed control at 40 ppm [%]: 100
- compound: "COc1cc(OC)cc(-c2c(-c3ccccc3)cnc(C)c2-c2c(F)cc(F)cc2F)c1 [Compound 121]"
  pest or weed control at 40 ppm [%]: 99
- compound: "COc1cc(OC)cc(-c2c(-c3ccccc3F)cnc(C)c2-c2c(F)cc(F)cc2F)c1 [Compound 89]"
  pest or weed control at 40 ppm [%]: 97
- compound: "COc1cc(OC)cc(-c2c(Br)cnc(C)c2-c2c(F)cc(F)cc2F)c1 [Compound 122]"
  pest or weed control at 40 ppm [%]: 99
- compound: "COc1cc(OC)c(Cl)c(-c2c(-c3ccccc3F)cnc(C)c2-c2c(F)cc(F)cc2F)c1 [Compound 135]"
  pest or weed control at 40 ppm [%]: 99
- compound: "CCc1cnc(C)c(-c2c(F)cc(F)cc2F)c1-c1cc(OC)cc(OC)c1 [Compound 137]"
  pest or weed control at 40 ppm [%]: 100

// query Look up pest or weed control at 40 ppm: COc1cc(OC)cc(-c2c(CC#N)cnc(C)c2-c2c(F)cc(F)cc2F)c1 [Compound 124]
// result 99

====

# Tested on: Alternaria solani
# assay overview: Test E: tomato early blight, preventive spray on tomato seedlings, visual disease rating
# Type: in vivo
# experimental parameters: 200 ppm, 100 = 100% disease control, 0 = no control
Listing: Test E rating (% disease control) of selected compounds

// known answers, use as guide
- smiles: "C=C(C)c1cnc(C)c(-c2c(F)cc(F)cc2F)c1-c1cc(OC)cc(OC)c1"
  tested on: "Alternaria solani"
  Test E rating (% disease control): "100%"
- smiles: "CCOC(=O)c1cnc(C)c(-c2c(F)cc(OC)cc2F)c1-c1cc(OC)cc(OC)c1"
  tested on: "Alternaria solani"
  Test E rating (% disease control): "79%"
- smiles: "CCOC(=O)c1cnc(C)c(-c2ccccc2)c1-c1cc(OC)ccc1F"
  tested on: "Alternaria solani"
  Test E rating (% disease control): "0%"

Now for a further compound.
// query Look up Test E rating (% disease control): "COc1cc(OC)cc(-c2c(C3CCCCC3)cnc(C)c2-c2ccc(F)cc2)c1"
// result 67%

====

# System: Alternaria solani
# assay overview: Test E: tomato early blight, preventive spray on tomato seedlings, visual disease rating
# Format: in vivo
# experimental parameters: 40 ppm (compound number followed by *)
Listing: Test E rating (% disease control) of selected compounds
# output: bare number, implied unit %

// known answers, use as guide
- compound: "COc1cc(OC)cc(-c2c(C(C)=NO)cnc(C)c2-c2c(F)cc(F)cc2F)c1 (single isomer, unassigned) [Compound 114]"
  tested on: "Alternaria solani"
  Test E rating (% disease control), %: 94
- compound: "COc1cc(OC)cc(-c2c(-c3cnc(OC)nc3OC)cnc(C)c2-c2c(F)cc(F)cc2F)c1 [Compound 131]"
  tested on: "Alternaria solani"
  Test E rating (% disease control), %: 0
- compound: "COc1cc(OC)cc(-c2c(-c3cccs3)cnc(C)c2-c2c(F)cc(F)cc2F)c1 [Compound 132]"
  tested on: "Alternaria solani"
  Test E rating (% disease control), %: 93
- compound: "C=C(C)c1cnc(CC)c(-c2ccccc2)c1-c1cc(OC)cc(OC)c1 [Compound 29]"
  tested on: "Alternaria solani"
  Test E rating (% disease control), %: 91

// query Look up Test E rating (% disease control): COc1cc(OC)c(Cl)c(-c2c(C(C)(C)O)cnc(C)c2-c2c(F)cc(F)cc2F)c1 [Compound 119]
// result 100

// query Look up Test E rating (% disease control): COc1cc(OC)cc(-c2c(Cn3cc(C#N)cn3)cnc(C)c2-c2c(F)cc(F)cc2F)c1 [Compound 123]
// result 0

// query Look up Test E rating (% disease control): COc1cc(OC)cc(-c2c(C(N)=O)cnc(C)c2-c2c(F)cc(F)cc2F)c1 [Compound 120]
// result 47

// query Look up Test E rating (% disease control): COc1cc(OC)cc(-c2c(-c3ccc(Cl)nc3)cnc(C)c2-c2c(F)cc(F)cc2F)c1 [Compound 127]
// result 0

// query Look up Test E rating (% disease control): COc1cc(OC)cc(-c2c(C3CCCC3)cnc(C)c2-c2c(F)cccc2F)c1 [Compound 67]
// result 99

// query Look up Test E rating (% disease control): COc1cc(OC)cc(-c2c(C(C)CO)cnc(C)c2-c2c(F)cc(OC)cc2F)c1 (stereo not shown) [Compound 92]
// result 100

// query Look up Test E rating (% disease control): COc1cc(OC)cc(-c2c(C(C)C)cnc(C)c2-c2c(F)ccc(F)c2F)c1 [Compound 78]
// result 96

// query Look up Test E rating (% disease control): CCC(C)c1cnc(C)c(-c2c(F)cc(F)cc2F)c1-c1cc(OC)cc(OC)c1 (stereo not shown) [Compound 73]
// result 91

// query Look up Test E rating (% disease control): COc1cc(OC)cc(-c2c(C3CCOCC3)cnc(C)c2-c2c(F)cc(F)cc2F)c1 [Compound 79]
// result 100

// query Look up Test E rating (% disease control): Cc1nc(C#N)c(C)c(-c2ccc(Cl)cc2)c1-c1c(F)cccc1F [Compound 143]
// result 97

// query Look up Test E rating (% disease control): COc1cc(OC)cc(-c2c(C)cnc(C)c2-c2c(F)cc(F)cc2F)c1 [Compound 129]
// result 66

// query Look up Test E rating (% disease control): COc1cc(OC)cc(-c2c(-c3cccnc3)cnc(C)c2-c2c(F)cc(F)cc2F)c1 [Compound 128]
// result 94

====

Listing: Test C rating (% disease control) of selected compounds
# Tested on: Septoria tritici
# assay overview: Test C: wheat leaf blotch, preventive spray on wheat seedlings, visual disease rating
# Format: in vivo
# experimental parameters: 40 ppm (compound number followed by *)
# output: bare number, implied unit %

// known answers, use as guide
- compound: "CCOC(=O)c1cnc(C)c(-c2ccccc2)c1-c1cc(OC)cc(OC)c1Cl"
  Test C rating (% disease control) (%): 0
- compound: "COc1cc(OC)cc(-c2c(C(C)=NO)cnc(C)c2-c2c(F)cc(F)cc2F)c1 (single isomer, unassigned) [Compound 117]"
  Test C rating (% disease control) (%): 99
- compound: "COc1cc(OC)cc(-c2c(-c3ccc(F)cc3)cnc(C)c2-c2ccc(F)cc2)c1"
  Test C rating (% disease control) (%): 77
- compound: "COc1cc(OC)c(Cl)c(-c2c(CCl)cnc(C)c2-c2c(F)cc(F)cc2F)c1"
  Test C rating (% disease control) (%): 99
- compound: "COc1cc(OC)cc(-c2c(-c3ccccc3)cnc(C)c2-c2ccccc2F)c1"
  Test C rating (% disease control) (%): 93

Now for a further compound.
// query For Septoria tritici, provide Test C rating (% disease control) of "COc1cc(OC)cc(-c2c(-c3cccs3)cnc(C)c2-c2c(F)cc(F)cc2F)c1" please.
// result 99
